System: K4 kissing-loop RNA reporter;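 further: bound reporter read as fluorescence of individual clusters on recovered sequencing chips by microscopy, with normalized cluster intensities fitted with a binding model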
protocolDescription: apparent KD of K4 kissing-loop reporter; higher = weaker reporter binding
conditionSummary: Eterna round: R107; input ligand: FMN 200 uM
The label depends only on apparent KD of K4 kissing-loop reporter: rule met if it is at least 200 nM, rule not met if it is smaller.

Req: Determine whether measured apparent KD of K4 kissing-loop reporter meets or exceeds 200 nM for GGAGUGAUGUUCCAUUUUUAAAUCUCCGAUACCAGUAUGGAAACAUACCCUUGGCAGCGGUAAACCGCAGAUUAGGAAACUAGUC [Theophylline A K4 1]
Resp: rule met

Req: Assess whether reported apparent KD of K4 kissing-loop reporter for ACGGAGUGAUGUUCCGGCCUCCCAGCAGAUACCAGCAGUCGCGAUUGCCCUUGGCAGCUGUCCGCGGCAUCCACUUGUAGCGGUA [theeternabot_exclusion_KL_Theo_A_12] sits at 200 nM or higher.
Resp: rule met

Req: Reported apparent KD of K4 kissing-loop reporter at or above 200 nM? ACGCUGUGAAUAACACAGCGAAUAAAUUCGCGAGGACCGGUACGGCCGCCACUCGCUAACUGCGAGUGAUGUUCGAUAAUAAAAU [Mat - Mod of OpenEnded 3 - D13]
Resp: rule not met

Req: Quick check: does GUGUAGAAGUGAGGAUAUCGAUUUAAGAAUAAGCAGUGAUGUUGCAAGCAGGAGGAAUAAGAUUAACGAGAAGGCGUGGAUAUAG [FMN B Exclusion; Euphoria Solution] have apparent KD of K4 kissing-loop reporter greater than or equal to 200 nM?
Resp: rule not met

Req: hey, is apparent KD of K4 kissing-loop reporter for this one >= 200 nM? GGUUCCUCAGUGAUGUUGAGGUGACCUCGGCAGGAUAUAGGCAUUACUAGAAGGGCCAAAAGAACCCUGUCCAGCGACACAGGGA [Zalatiat]
Resp: rule not met

Req: Answer whether apparent KD of K4 kissing-loop reporter of UGUAUGUGAUGUGAUACCAGUGAAGAGCCAGUGAUGUUGGUAGAACUGGUAUAUAAAUAACACCCUUGGCAGCACAGUCACGUAC [whbob_Ex_Theo_B_sa100] is greater than or equal to 200 nM.
Resp: rule met

----------
Test system: MS2 coat protein
protocolDescription: apparent KD of MS2 coat protein; designed switch direction (-1 OFF switch, 1 ON switch): -1; higher = weaker reporter binding
conditionSummary: Eterna round: R95; input ligand: microRNA oligo, concentration not stated
experimentalEndpoint: apparent KD of MS2 coat protein (nM)
Write the answer as a number in nM, unit excluded.

Req: Supply apparent KD of MS2 coat protein value. Item: GUGUAGUGAGGAUAUACAUGAGGAUCACCCAUGUGAAUAAGAUAGAAUAAGAUAAAGUGUAGAAGGCACAGUGU [Excluse me!!! 3 - Jieux - Exclusion 3] (puzzle: Exclusion 3)
Resp: 35.7

Req: State, in one line, measured apparent KD of MS2 coat protein of UUUUAGGAAGGAUAUACAUUUUUUUUAUUAUCCUCAUUAUUACAUGAGGAUCACCCAUGUAGAAGGUCCAUUUU [My Design] (puzzle: Exclusion 2)
Resp: 175

Req: Using known records, supply apparent KD of MS2 coat protein for CUUUUUUGAGGAUAUUAGUAGUAAAUAAAUAAAAUUACUACUGAGAAGGCACAUGAGGAUCACCCAUGUUCCUC [salish99_ex4_r3_046] (puzzle: Exclusion 4)
Resp: 17.6

----------
System: MS2 coat protein
protocolDescription: apparent KD of MS2 coat protein; designed switch direction (-1 OFF switch, 1 ON switch): -1; higher = weaker reporter binding
conditionSummary: input ligand: microRNA oligo, concentration not stated
experimentalEndpoint: apparent KD of MS2 coat protein (nM)
All answers are understood in nM, so give the number only.

Req: Specify apparent KD of MS2 coat protein for AAAAUACGCACAGGAUAUCGAUACAUGAGGAUCACCCAUGUAACAUGGACUGGUCAGCAGAAAAGCGAGAAGGGUGCUGACGAC [Lediaroren] (Eterna round: R96, puzzle: Exclusion NG 2) and stop.
Resp: 90.3

Req: State, in one line, measured apparent KD of MS2 coat protein of CAGUACUGAGGAUAUACAUGAGGAUCACCCAUGUGUCCCAGCUAGGAAACUAGCAAAAGUAGAAGGCAGUACUG [Fiskers Ex 3 828 mod 1] (Eterna round: R96, puzzle: Exclusion 3)
Resp: 20.6

Req: // fetch apparent KD of MS2 coat protein given entry UCACGGGACUGAGGAUAUACAUGAAUUAUUUUUGUAGAAGGCAGAAUGUUAGAUUAUACACUAUACAUGAGGAUCACCCAUGUU [JR_ExcNG1_Sub023] (Eterna round: R96, puzzle: Exclusion NG 1)
Resp: 20.5

Req: Supply apparent KD of MS2 coat protein value. Item: UUAUUAUAUGUAGGAUAUGCGUAUUAUUGUUAUGCAGAAGGACAUGAGGAUCACCCAUGUAUAUUAUUGUUAUAUAUUAUAUGU [Title] (Eterna round: R96, puzzle: Exclusion NG 1)
Resp: 26.6

Req: Report apparent KD of MS2 coat protein, nothing else, for this sequence: UUUUUAUAUGAAGGAUAUACUUAACAUGAGGAUCACCCAUGUGGUGUUGUGAGUGAGUGAGUUUAGUAGAAGGUCAAUGAUUCU [JMF's solution 61] (Eterna round: R96, puzzle: Exclusion NG 2)
Resp: 299

----------
System: MS2 coat protein
protocolDescription: apparent KD of MS2 coat protein; designed switch direction (-1 OFF switch, 1 ON switch): 1; higher = weaker reporter binding
conditionSummary: Eterna round: R95; input ligand: microRNA oligo, concentration not stated
Could you please report measured apparent KD of MS2 coat protein for the items listed next?
Reply with just the number (in nM).

Req: Specify reported apparent KD of MS2 coat protein for the sequence shown: AUUUUAAAACAUGAGGAUCACCCAUGUUACAAGCUUUUUUUUUUUUUUUUUUUUUGGUGAUCCUCAGCUCGUCUUAU [lrlee 1] (puzzle: Sensor for hsa-mir-208a version 2)
Resp: 5.16

Req: Supply recorded apparent KD of MS2 coat protein for UUAAAACAUGAGGAUCACCCAUGUCAACAAAGUCGAGGAUAUGGGCAAUUAUUAUUAGAACCAGAAGGCGAAUAUU [Mat - Same State 1 - Mod of UCT - D28] (puzzle: Same State 1) here.
Resp: 260

Req: Input AAUUAACAUGAGGAUCACCCAUGUCGUAUUAUGGGAGGAUAUACGUGGACCGUAGUCCGCGUAGAAGGCCUAAUUA [Mat - Same State 1 - Mod of JL - D21] (puzzle: Same State 1) , output reported apparent KD of MS2 coat protein.
Resp: 34.6

Req: Using known records, supply apparent KD of MS2 coat protein for GCGCAGCUGGGUGAGGAUAUCGGUGGUAAAACAUGAGGAUCACCCAUGUCCGAAGCUCGGACUUCCGAGAAGGCGCCCGGCUGCA [Ridigea] (puzzle: Same State 2)
Resp: 72.3

Req: Give a short answer stating reported apparent KD of MS2 coat protein for GUGGCCCAGGCACAGGAUAUGUUUCUCGUAACAUGAGGAUCACCCAUGUGCCUAUGAGAUUGUUUGCAGAAGGGUGCACGCCACG [JL Atiinbe mod 03] (puzzle: Same State 2) .
Resp: 348

Req: Output measured apparent KD of MS2 coat protein for this item: CAGCGCUGUUGAGAGGAUAUGCGGUGAUGGACAUGAGGAUCACCCAUGUUAGCGACAGCAUUACGGUAGAAGGCUUCACAGCUGC [Soteed Omei mod 16] (puzzle: Same State 2)
Resp: 126

Req: Give me measured apparent KD of MS2 coat protein, please, for this sequence: CAAAAUUAGUAGGAUAGGUACCCAGGAUGACAUGAGGAUCACCCAUGUAAGAGCUUUUUGCUCGUCAUUAACAGUUG [JR_SHM208a_Sub016] (puzzle: Sensor for hsa-mir-208a)
Resp: 55.7

Req: Identify apparent KD of MS2 coat protein associated with the sequence UUUAGUUGCGGGCAGGAUAUGUAUUAAAAUACAUGAGGAUCACCCAUGUGAGACCAUAAAGGUCUACAGAAGGGCCAAUCGCGAC [Laonerce - 19] (puzzle: Same State 2)
Resp: 89

Req: Note down apparent KD of MS2 coat protein recorded for AUUAUACAUGAGGAUCACCCAUGUCAACGUAGUCGAGGAUAUGGGCAGCCGUGAGGCGUACUAGAAGGCGAAGAGA [Mat - Same State 1 - Mod of JL - D8] (puzzle: Same State 1)
Resp: 235

Req: Assign apparent KD of MS2 coat protein to the following record: CAGCACUGUCGAGAGGAUAUGCGGUGGUAGACAUGAGGAUCACCCAUGUUAGCGACAGCAUCACGGCAGAAGGCUCUGCUGCUGC [Soteed Omei mod 41] (puzzle: Same State 2)
Resp: 96.2
